Kindly supply the reported Signal decrease values for the records listed here.
Target of assay: T1, biotin-labeled human CD137 fused to human IgG1 Fc fragment (human, biotin-labeled)
T1 construct: Immobilised on streptavidin beads through biotin; also called human CD137-Fc; biotin-human CD137-Fc
Test name: competitive bead ELISA, decrease of signal on biotin-human CD137-Fc with 125 pmol/well free CD3 epsilon peptide against 0
Enter your answer as a number in %; do not include the unit.

Query: Fill in: Signal decrease of dBBDu127 (antibody, human IgG1, V domains shown, IgG: VH joined to human IgG1 CH1-Fc, GLS3000 as light chain; also called DXDU01_3_#051; DXDU01_3 #051) VH: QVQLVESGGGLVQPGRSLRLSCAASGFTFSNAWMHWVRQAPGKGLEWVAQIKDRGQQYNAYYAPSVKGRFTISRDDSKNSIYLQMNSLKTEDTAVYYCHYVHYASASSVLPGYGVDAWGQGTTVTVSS VL: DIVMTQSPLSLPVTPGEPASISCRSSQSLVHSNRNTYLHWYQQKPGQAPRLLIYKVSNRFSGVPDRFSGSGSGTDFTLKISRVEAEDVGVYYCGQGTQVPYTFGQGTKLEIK is ___
Result: 32

Query: Same thing, different binder: dBBDu205 (antibody, human IgG1, V domains shown, IgG: VH joined to human IgG1 CH1-Fc, GLS3000 as light chain) VH: QVQLVESGGGLVQPGRSLRLSCAASGFTFSNAWMHWVRQAPGKGLEWVAQIKDRSQLYAAYYAPSVKGRFTISRDDSKNSIYLQMNSLKTEDTAVYYCHYVHYASASTVLPAFGVDAWGQGTTVTVSS VL: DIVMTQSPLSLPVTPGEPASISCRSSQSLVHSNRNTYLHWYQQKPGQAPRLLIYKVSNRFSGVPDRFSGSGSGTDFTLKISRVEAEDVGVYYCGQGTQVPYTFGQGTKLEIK
Result: 95.2

Query: Same thing, different binder: dBBDu222 (antibody, human IgG1, V domains shown, IgG: VH joined to human IgG1 CH1-Fc, GLS3000 as light chain) VH: QVQLVESGGGLVQPGRSLRLSCAASGFTISSAWMHWVRQAPGKGLEWVAQIKDRANGYAAYYAPSVKGRFTISRDDSKNSIYLQMNSLKTEDTAVYYCRYVHYATAYDGFYGFGVDAWGQGTTVTVSS VL: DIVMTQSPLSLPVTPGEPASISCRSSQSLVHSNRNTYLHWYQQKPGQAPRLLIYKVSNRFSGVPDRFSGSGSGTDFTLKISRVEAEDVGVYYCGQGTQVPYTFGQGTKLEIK
Result: 55

Query: Same thing, different binder: dBBDu183 (antibody, human IgG1, V domains shown, IgG: VH joined to human IgG1 CH1-Fc, GLS3000 as light chain) VH: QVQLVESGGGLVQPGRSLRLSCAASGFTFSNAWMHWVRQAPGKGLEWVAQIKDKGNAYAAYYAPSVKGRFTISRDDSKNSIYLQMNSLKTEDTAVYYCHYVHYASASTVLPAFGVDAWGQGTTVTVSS VL: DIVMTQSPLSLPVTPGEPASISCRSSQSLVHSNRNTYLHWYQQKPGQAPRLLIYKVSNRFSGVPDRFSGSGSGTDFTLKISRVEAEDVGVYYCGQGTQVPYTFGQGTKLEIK
Result: 93

Query: Same thing, different binder: dBBDu124 (antibody, human IgG1, V domains shown, IgG: VH joined to human IgG1 CH1-Fc, GLS3000 as light chain; also called DADU01_3_#002; DADU01_3 #002) VH: QVQLVESGGGLVQPGRSLRLSCAASGFTFSNAWMHWVRQAPGKGLEWVAQIKDKQNLYNAYYAESVKGRFTISRDDSKNSIYLQMNSLKTEDTAVYYCHYVHYASASTVLPAFGVDAWGQGTTVTVSS VL: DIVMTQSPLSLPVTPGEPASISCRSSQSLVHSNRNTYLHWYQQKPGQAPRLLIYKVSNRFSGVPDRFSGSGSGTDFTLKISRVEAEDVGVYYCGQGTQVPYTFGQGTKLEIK
Result: 68
